Test: Ratio of drug level in brain to plasma in Sprague-Dawley rat at 1 mg/kg, iv after 2 hrs
Assay type: ADME, organism-based
Parameters: dose 1 mg/kg, route intravenous
Conditions: read-out: BPR
quantity-name: Kp at 2 h
Give your answer as a number; write no unit.

State, in one line, measured Kp at 2 h of COC(=O)[C@@]1(C)CCC[C@@]2(C)[C@@H]3C[C@@H]4CC[C@@]3(CC[C@@H]21)[C@H](O)[C@H]4C[S+](C)[O-] (stereo partly specified)
2.21

====

Experiment: Tmax in Sprague-Dawley rat at 5 mg/kg, po
Assay type: ADME, organism-based
Parameters: dose 5 mg/kg, route oral
Settings: in vivo
quantity-name: Tmax (min)
Only the number, expressed in min, is required.

Report Tmax for `C[S@@+]([O-])C[C@H]1[C@H]2CC[C@@]3(CC[C@H]4[C@@](C)(CCC[C@]4(C)C(=O)O)[C@@H]3C2)[C@@H]1O`
19.8

====

Assay: AUC in Sprague-Dawley rat at 5 mg/kg, po
Format: ADME, organism-based
Design: dose 5 mg/kg, route oral
Conditions: plasma
quantity-name: AUC
Param answer (str): number followed by unit.

Given `C[S@@+]([O-])C[C@H]1[C@H]2CC[C@@]3(CC[C@H]4[C@@](C)(CCC[C@]4(C)C(=O)O)[C@@H]3C2)[C@@H]1O` , respond with its AUC.
5640 ng·h/mL

====

Assay: Half life in Sprague-Dawley rat at 5 mg/kg, po
Format: ADME, organism-based
Design: dose 5 mg/kg, route oral
Conditions: in vivo
quantity-name: half-life (min)
Record the value in min, omitting the unit from your answer.

Using the record for C[S@@+]([O-])C[C@H]1[C@H]2CC[C@@]3(CC[C@H]4[C@@](C)(CCC[C@]4(C)C(=O)O)[C@@H]3C2)[C@@H]1O [SEROFENDIC ACID B] , state its measured half-life.
234

====

Assay: Oral bioavailability in Sprague-Dawley rat at 5 mg/kg
Assay type: ADME, organism-based
Settings: in vivo
quantity-name: bioavailability (%)
Please respond with the number in % and leave the unit unwritten.

Indicate the recorded bioavailability value for this compound: `C[S@@+]([O-])C[C@H]1[C@H]2CC[C@@]3(CC[C@H]4[C@@](C)(CCC[C@]4(C)C(=O)O)[C@@H]3C2)[C@@H]1O`
41

====

Assay: Cmax in Sprague-Dawley rat at 5 mg/kg, po
Type: ADME, organism-based
Set-up: dose 5 mg/kg, route oral
Settings: in vivo
quantity-name: Cmax (ng/mL)
Write the answer as a number in ng/mL, unit excluded.

Supply Cmax value. Item: `C[S@@+]([O-])C[C@H]1[C@H]2CC[C@@]3(CC[C@H]4[C@@](C)(CCC[C@]4(C)C(=O)O)[C@@H]3C2)[C@@H]1O`
2050

====

This listing pairs compounds with measured half-life.
Assay: Half life in Sprague-Dawley rat at 1 mg/kg, iv
Assay type: ADME, organism-based
Design: dose 1 mg/kg, route intravenous
Conditions: in vivo
# value in min; strip the unit string

Known half-life results, listed for orientation:
compound: C[S@@+]([O-])C[C@H]1[C@H]2CC[C@@]3(CC[C@H]4[C@@](C)(CCC[C@]4(C)C(=O)O)[C@@H]3C2)[C@@H]1O
quantity-name: half-life
value-reported: 39
--
compound: COC(=O)[C@@]1(C)CCC[C@@]2(C)[C@@H]3C[C@@H]4CC[C@@]3(CC[C@@H]21)[C@H](O)[C@H]4C[S+](C)[O-] (stereo partly drawn)
quantity-name: half-life
value-reported: 33

# next compound below
Supply half-life value. Item: `C[S@+]([O-])C[C@H]1[C@H]2CC[C@@]3(CC[C@H]4[C@@](C)(CCC[C@]4(C)C(=O)O)[C@@H]3C2)[C@@H]1O`
28.8
